Where do the numbers come from? From patent US10227347B2.

test system: RPMI-8226 cells (multiple myeloma); test: Proliferation inhibition, RPMI-8226 (cck-8); format: cell-based; conditions: Homo sapiens, 96 h incubation
pIC50: −log10 of the molar value.
outcome_measure: pIC50

[ask] For RPMI-8226 cells (multiple myeloma), provide pIC50 of CN(Cc1nc2c(N3CCOCC3)nc(-c3cnc(N)nc3)nc2n1C)c1ncc(C(=O)NO)cn1 please.
[reply] 7.00 to 8.00

[ask] Input Cc1[nH]c2ccccc2c1CCNCc1ccc(/C=C/C(=O)NO)cc1 [LBH589, panobinostat, reference compound]
[reply] 8.00 to 9.00

[ask] Input COc1ccc(-c2nc(N3CCOCC3)c3nc(CN(C)c4ncc(C(=O)NO)cn4)n(C)c3n2)cc1
[reply] 9.00 to 10.00

[ask] Input COc1ccc(-c2nc(N3CCOCC3)c3nc(CN(C)c4ncc(C(=O)NO)cn4)n(C)c3n2)cn1
[reply] 8.00 to 9.00

[ask] Input CN(Cc1nc2c(N3CCOCC3)nc(-c3ccncc3)nc2n1C)c1ncc(C(=O)NO)cn1
[reply] 8.00 to 9.00

[ask] Input CN(Cc1nc2c(N3CCOCC3)nc(-c3ccc(N)cc3)nc2n1C)c1ncc(C(=O)NO)cn1
[reply] 9.00 to 10.00

* * *

system: MV4-11 subcutaneous tumor; conditions: 10 mg/kg i.v., once per two days, 22 days
Please respond with reported Final survival condition (survived individuals/total individuals) for every item in the list.

[ask] Which Final survival condition (survived individuals/total individuals) reading was recorded for the compound COc1ccc(-c2nc(N3CCOCC3)c3nc(CN(C)c4ncc(C(=O)NO)cn4)n(C)c3n2)cn1 ?
[reply] 5/6

[ask] Input CN(Cc1nc2c(N3CCOCC3)nc(-c3ccc(N)cc3)nc2n1C)c1ncc(C(=O)NO)cn1
[reply] 6/6

[ask] Input CN(Cc1nc2c(N3CCOCC3)nc(-c3cnc(N)nc3)nc2n1C)c1ncc(C(=O)NO)cn1
[reply] 4/6

[ask] Input COc1ccc(-c2nc(N3CCOCC3)c3nc(CN(C)c4ncc(C(=O)NO)cn4)n(C)c3n2)cc1
[reply] 4/6

[ask] Input CN(Cc1nc2c(N3CCOCC3)nc(-c3ccncc3)nc2n1C)c1ncc(C(=O)NO)cn1
[reply] 5/6

* * *

system: MV4-11 cells (acute myeloid leukemia); assay: Cell proliferation inhibition, MV4-11 (cck-8); assay type: cell-based; conditions: Homo sapiens, 96 h incubation, read-out: Proliferation IC50, Acute myeloid leukemia MV4-11
pIC50: −log10 of the molar value.
Please respond with reported pIC50 for every item in the list.

[ask] Which pIC50 reading was recorded for the molecule CN(Cc1nc2c(N3CCOCC3)nc(-c3ccc(Cl)c(C(F)(F)F)c3)nc2n1C)c1ncc(C(=O)NO)cn1 ?
[reply] 6.00 to 7.00

[ask] Input COc1ccc(-c2nc(N3CCOCC3)c3nc(CN(C)c4ncc(C(=O)NO)cn4)n(C(C)C)c3n2)cc1
[reply] < 6.00

[ask] Input COc1ccc(-c2nc(N3CCOCC3)c3nc(CN(C)c4ncc(C(=O)NO)cn4)n(C(C)C)c3n2)cn1
[reply] < 6.00

[ask] Input CN(C)CCn1cc(-c2nc(N3CCOCC3)c3nc(CN(C)c4ncc(C(=O)NO)cn4)n(C)c3n2)cn1
[reply] 8.00 to 10.00

[ask] Input CNc1ncc(-c2nc(N3CCOCC3)c3nc(CN(C)c4ncc(C(=O)NO)cn4)n(C)c3n2)cn1
[reply] 8.00 to 10.00

[ask] Input Cc1cscc1-c1nc(N2CCOCC2)c2nc(CN(C)c3ncc(C(=O)NO)cn3)n(C)c2n1
[reply] 8.00 to 10.00

[ask] Input CN(Cc1nc2c(N3CCOCC3)nc(-c3cncnc3)nc2n1C)c1ncc(C(=O)NO)cn1
[reply] 7.00 to 8.00

[ask] Input COc1cc(-c2nc(N3CCOCC3)c3nc(CN(C)c4ncc(C(=O)NO)cn4)n(C)c3n2)cc(OC)c1OC
[reply] 8.00 to 10.00

[ask] Input Cc1[nH]c2ccccc2c1CCNCc1ccc(/C=C/C(=O)NO)cc1 [LBH589, panobinostat, reference compound]
[reply] 8.00 to 10.00

[ask] Input CN(Cc1nc2c(N3CCOCC3)nc(-c3ccsc3)nc2n1C)c1ncc(C(=O)NO)cn1
[reply] 8.00 to 10.00

[ask] Input CN(Cc1nc2c(N3CCOCC3)nc(-c3cnc(N)nc3)nc2n1C)c1ncc(C(=O)NO)cn1
[reply] 8.00 to 10.00

[ask] Input COc1ccc(-c2nc(N3CCOCC3)c3nc(CN(C)c4ncc(C(=O)NO)cn4)n(C)c3n2)cc1
[reply] 8.00 to 10.00

[ask] Input CN(Cc1nc2c(N3CCOCC3)nc(-c3ccc(C(=O)O)s3)nc2n1C)c1ncc(C(=O)NO)cn1
[reply] 8.00 to 10.00

[ask] Input CN(Cc1nc2c(N3CCOCC3)nc(-c3ccc(N)nc3)nc2n1C)c1ncc(C(=O)NO)cn1
[reply] 8.00 to 10.00

[ask] Input CN(Cc1nc2c(N3CCOCC3)nc(-c3ccc[nH]3)nc2n1C)c1ncc(C(=O)NO)cn1
[reply] 8.00 to 10.00

[ask] Input CN(Cc1nc2c(N3CCOCC3)nc(-c3ccc4[nH]ncc4c3)nc2n1C)c1ncc(C(=O)NO)cn1
[reply] 7.00 to 8.00

[ask] Input COc1ccc(-c2nc(N3CCOCC3)c3nc(CN(C)c4ncc(C(=O)NO)cn4)n(C4CCCC4)c3n2)cn1
[reply] < 6.00

[ask] Input CN(Cc1nc2c(N3CCOCC3)nc(-c3ccncc3)nc2n1C)c1ncc(C(=O)NO)cn1
[reply] 8.00 to 10.00

[ask] Input COc1ccc(C(F)(F)F)cc1-c1nc(N2CCOCC2)c2nc(CN(C)c3ncc(C(=O)NO)cn3)n(C)c2n1
[reply] 8.00 to 10.00

[ask] Input CN(Cc1nc2c(N3CCOCC3)nc(-c3cccs3)nc2n1C)c1ncc(C(=O)NO)cn1
[reply] 8.00 to 10.00

[ask] Input CN(Cc1nc2c(N3CCOCC3)nc(-c3ccc(N)cc3)nc2n1C)c1ncc(C(=O)NO)cn1
[reply] 8.00 to 10.00

[ask] Input CN(Cc1nc2c(N3CCOCC3)nc(-c3ccc4c(c3)OCO4)nc2n1C)c1ncc(C(=O)NO)cn1
[reply] 8.00 to 10.00

[ask] Input CC(C)=CCN(CC=C(C)C)c1ccc(-c2nc(N3CCOCC3)c3nc(CN(C)c4ncc(C(=O)NO)cn4)n(C)c3n2)cc1
[reply] 7.00 to 8.00

[ask] Input Nc1cc(F)ccc1NC(=O)c1ccc(CNC(=O)/C=C/c2cccnc2)cc1 [Chidamide, chidamide, reference compound]
[reply] 6.00 to 7.00

[ask] Input COc1ccc(-c2nc(N3CCOCC3)c3nc(CN(C)c4ncc(C(=O)NO)cn4)n(C4CCCC4)c3n2)cc1
[reply] < 6.00

[ask] Input CCCCc1ccc(-c2nc(N3CCOCC3)c3nc(CN(C)c4ncc(C(=O)NO)cn4)n(C)c3n2)s1
[reply] 8.00 to 10.00

[ask] Input CN(Cc1nc2c(N3CCOCC3)nc(Cl)nc2n1C)c1ncc(C(=O)NO)cn1
[reply] 7.00 to 8.00

[ask] Input CN(Cc1nc2c(N3CCOCC3)nc(-c3ccc(S(C)(=O)=O)cc3)nc2n1C)c1ncc(C(=O)NO)cn1
[reply] 8.00 to 10.00

[ask] Input Cc1ncc(-c2nc(N3CCOCC3)c3nc(CN(C)c4ncc(C(=O)NO)cn4)n(C)c3n2)cn1
[reply] 8.00 to 10.00

[ask] Input CCN(Cc1nc2c(N3CCOCC3)nc(-c3ccc(OC)nc3)nc2n1C)c1ncc(C(=O)NO)cn1
[reply] 6.00 to 7.00

[ask] Input CN(Cc1nc2c(N3CCOCC3)nc(-c3ccc(C(F)(F)F)cc3)nc2n1C)c1ncc(C(=O)NO)cn1
[reply] 8.00 to 10.00
